Target: T1, human GREM1 (hGREM1-His; SEQ ID NO: 595) (human, UniProt O60565 25-184)
T1 construct: also called biotin-hGREM1-His; recombinant human GREM1 protein
T1 sequence: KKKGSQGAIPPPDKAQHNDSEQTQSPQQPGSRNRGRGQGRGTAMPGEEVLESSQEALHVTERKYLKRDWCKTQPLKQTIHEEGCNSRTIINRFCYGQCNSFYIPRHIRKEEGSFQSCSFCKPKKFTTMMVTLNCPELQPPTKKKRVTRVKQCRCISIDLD
Assay: SPR, Biacore T200, 37 C, mAb captured, hGREM1-His injected;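 further: HBS-EP running buffer containing heparin, association and dissociation phases tracked, KD computed as koff over kon and half-life derived from koff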
quantity: pKd
API: returns pKd as number; meaning -log10 of concentration in mol/L.

Just so you know, measured pKd for H4H6233P (antibody, human IgG4, V domains shown, H4H prefix = human IgG4 Fc) VH: QVQLVESGGGVVQPGRSLRLSCAASGFTFSSYGMHWVRQAPGKGLEWVAVIWYDGSNYYYAASVKGRFTISRDNSENTLYLQMNRLRAEDTAVYYCAREGTGSTEDYFDYWGQGTLVTVSS VL: EIVLTQSPATLSLSPGERATLSCRASQSVSSFLAWYQQKPGQAPRLLIYDASNRATGIPVRFSGSGSGTDFTLTISSLEPEDFAVYYCQQRSNWPPYTFGQGTKLEIK came out at 8.49

Item: H4H6250P (antibody, human IgG4, V domains shown, H4H prefix = human IgG4 Fc) VH: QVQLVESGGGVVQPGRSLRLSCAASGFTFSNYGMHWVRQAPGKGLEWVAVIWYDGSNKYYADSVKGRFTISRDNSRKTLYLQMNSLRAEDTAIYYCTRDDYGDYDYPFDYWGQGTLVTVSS VL: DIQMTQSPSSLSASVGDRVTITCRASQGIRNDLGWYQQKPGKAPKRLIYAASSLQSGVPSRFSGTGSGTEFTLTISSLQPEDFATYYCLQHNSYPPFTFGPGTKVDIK | pKd: 8.23

get_value(item= H4H6246P (antibody, human IgG4, V domains shown, H4H prefix = human IgG4 Fc) VH: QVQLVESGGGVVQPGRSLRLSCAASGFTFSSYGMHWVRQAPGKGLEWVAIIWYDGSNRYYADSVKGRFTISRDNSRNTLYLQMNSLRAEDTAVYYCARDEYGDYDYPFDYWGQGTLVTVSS VL: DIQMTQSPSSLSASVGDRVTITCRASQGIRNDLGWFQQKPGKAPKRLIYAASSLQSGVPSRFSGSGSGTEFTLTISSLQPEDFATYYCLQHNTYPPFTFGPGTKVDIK , readout=pKd) returns 8.46

// pKd value for H4H6243P (antibody, human IgG4, V domains shown, H4H prefix = human IgG4 Fc) VH: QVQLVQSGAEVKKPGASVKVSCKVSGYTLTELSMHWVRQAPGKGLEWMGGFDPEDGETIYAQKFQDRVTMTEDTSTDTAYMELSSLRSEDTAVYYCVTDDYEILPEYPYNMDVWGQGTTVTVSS VL: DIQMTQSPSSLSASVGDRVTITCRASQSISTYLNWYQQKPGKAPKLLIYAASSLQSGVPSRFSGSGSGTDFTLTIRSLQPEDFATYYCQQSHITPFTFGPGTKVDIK : 7.16
